Assay: molar heat capacity at constant pressure
Details: 328.15 K; 100 kPa; Crystal; DSC

molecule	molar heat capacity at constant pressure, J/K/mol
O=c1c(O)c(-c2ccccc2)oc2ccccc12 [3-hydroxyflavone]	287.6
c1ccc2cc3ccccc3cc2c1	234.2
Nc1ccc2oc(-c3ccccc3)cc(=O)c2c1	306.3
O=c1cc(-c2ccccc2)oc2cccc(O)c12 [5-hydroxyflavone]	311.2
O=C(O)c1ccccc1	157.8
c1cc2ccc3cccc4ccc(c1)c2c34	252.6
O=c1cc(-c2ccccc2)oc2ccc(O)cc12 [6-hydroxyflavone]	282.6
O=c1cc(-c2ccccc2)oc2cc(O)ccc12 [7-hydroxyflavone]	282.1

* * *

Conditions: Crystal; DTA
assayReadout: Normal melting temperature (°C)

molecule	experimentalResult
O=c1cc(-c2ccccc2)oc2cccc(O)c12 [5-hydroxyflavone]	158
c1cc2ccc3cccc4ccc(c1)c2c34 [pyrene]	150.8
Nc1ccc2oc(-c3ccccc3)cc(=O)c2c1 [6-aminoflavone]	198.8
O=C(O)c1ccccc1 [benzoic acid]	122.2
O=c1cc(-c2ccccc2)oc2ccc(O)cc12 [6-hydroxyflavone]	236.2
O=c1cc(-c2ccccc2)oc2cc(O)ccc12 [7-hydroxyflavone]	242.1
O=c1c(O)c(-c2ccccc2)oc2ccccc12 [3-hydroxyflavone]	170.5
c1ccc2cc3ccccc3cc2c1 [anthracene]	216.6

* * *

Test: molar heat capacity at constant pressure
Conditions: 303.15 K; 100 kPa; Crystal; DSC
Numbers after ± are expanded uncertainties.
Measured molar heat capacity at constant pressure of individual entries

compound	molar heat capacity at constant pressure
c1ccc2cc3ccccc3cc2c1	213.9 ± 11 J/K/mol
Nc1ccc2oc(-c3ccccc3)cc(=O)c2c1	283.4 ± 14 J/K/mol
O=C(O)c1ccccc1	147.5 ± 7.4 J/K/mol
O=c1cc(-c2ccccc2)oc2cccc(O)c12 [5-hydroxyflavone]	285.1 ± 14 J/K/mol
O=c1cc(-c2ccccc2)oc2ccc(O)cc12 [6-hydroxyflavone]	255.3 ± 13 J/K/mol
O=c1cc(-c2ccccc2)oc2cc(O)ccc12 [7-hydroxyflavone]	259.1 ± 13 J/K/mol
c1cc2ccc3cccc4ccc(c1)c2c34	230.2 ± 12 J/K/mol
O=c1c(O)c(-c2ccccc2)oc2ccccc12 [3-hydroxyflavone]	272.8 ± 14 J/K/mol

* * *

Test: molar heat capacity at constant pressure
Conditions: 428.15 K; 100 kPa; Crystal; DSC
assayReadout: molar heat capacity at constant pressure (J/K/mol)

compound	assayReadout	experimentalResult
c1ccc2cc3ccccc3cc2c1	molar heat capacity at constant pressure	313.4
O=c1cc(-c2ccccc2)oc2ccc(O)cc12 [6-hydroxyflavone]	molar heat capacity at constant pressure	373.7
Nc1ccc2oc(-c3ccccc3)cc(=O)c2c1	molar heat capacity at constant pressure	390.1
O=c1c(O)c(-c2ccccc2)oc2ccccc12 [3-hydroxyflavone]	molar heat capacity at constant pressure	379
O=c1cc(-c2ccccc2)oc2cc(O)ccc12 [7-hydroxyflavone]	molar heat capacity at constant pressure	361.9

* * *

Assay: molar heat capacity at constant pressure
Settings: 408.15 K; 100 kPa; Crystal; DSC

compound	unitsLabel	molar heat capacity at constant pressure
c1cc2ccc3cccc4ccc(c1)c2c34 [pyrene]	J/K/mol	359.2
O=c1c(O)c(-c2ccccc2)oc2ccccc12 [3-hydroxyflavone]	J/K/mol	356.3
Nc1ccc2oc(-c3ccccc3)cc(=O)c2c1 [6-aminoflavone]	J/K/mol	374.6
O=c1cc(-c2ccccc2)oc2cccc(O)c12 [5-hydroxyflavone]	J/K/mol	377.7
O=c1cc(-c2ccccc2)oc2ccc(O)cc12 [6-hydroxyflavone]	J/K/mol	358.3
O=c1cc(-c2ccccc2)oc2cc(O)ccc12 [7-hydroxyflavone]	J/K/mol	347
c1ccc2cc3ccccc3cc2c1 [anthracene]	J/K/mol	299.3
